Here the recorded IC50 is given for each entry.
# Test system: E. coli BW25113 ΔtolC growth inhibition, OD615
# protocol text: growth inhibitors of E. coli tolC mutant, dose response, strain BW25113 ΔtolC::kan (AID 617);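 note: growth read after 20 h at 37 °C with compound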

compound: CCOc1ccc2nc(NC(=O)CN3CCC(n4nnc5cc(F)ccc54)CC3)sc2c1
target under test: E. coli BW25113 ΔtolC growth inhibition, OD615
IC50: 15.4 µM
--
compound: C=CCOC(=O)C(C#N)c1nc2ccccc2nc1N1CCCC1 (stereo unspecified)
target under test: E. coli BW25113 ΔtolC growth inhibition, OD615
IC50: 8.74 µM
--
compound: O=C(Oc1ccccc1)c1cc2ccccc2o1
target under test: E. coli BW25113 ΔtolC growth inhibition, OD615
IC50: 23.1 µM
--
compound: COc1ccc(C(C(O)C(=O)c2c[nH]c3ccccc23)N2CCN(c3ccccc3)CC2)cc1 (stereo unspecified)
target under test: E. coli BW25113 ΔtolC growth inhibition, OD615
IC50: 7.52 µM
--
compound: Cc1cc(N2CCN(C(c3ccccc3)c3ccccc3)CC2)n2ncnc2n1
target under test: E. coli BW25113 ΔtolC growth inhibition, OD615
IC50: 26.6 µM
--
compound: COc1ccc(-c2nc(-c3cccs3)c(-c3cccs3)[nH]2)cc1O
target under test: E. coli BW25113 ΔtolC growth inhibition, OD615
IC50: 6.09 µM
--
compound: CC1CC(N(C(=O)c2ccco2)c2ccccc2)c2ccccc2N1 (stereo unspecified)
target under test: E. coli BW25113 ΔtolC growth inhibition, OD615
IC50: 13.4 µM
--
compound: CCCCNc1cc(C)nc(NCc2ccccc2)n1
target under test: E. coli BW25113 ΔtolC growth inhibition, OD615
IC50: 7.8 µM
--
compound: CCCCN(CCCNC(=O)CN1C(=O)COc2ccccc21)c1ccccc1
target under test: E. coli BW25113 ΔtolC growth inhibition, OD615
IC50: 38.9 µM
--
compound: O=C(C1CC1)N1CCc2cc(S(=O)(=O)NCCC3=CCCCC3)ccc21
target under test: E. coli BW25113 ΔtolC growth inhibition, OD615
IC50: 17.7 µM
--
compound: O=C(Nc1nc2ccccc2s1)C1CCCN1S(=O)(=O)c1ccc(Cl)cc1 (stereo unspecified)
target under test: E. coli BW25113 ΔtolC growth inhibition, OD615
IC50: 8.91 µM
